# Test system: Escherichia coli
# settings: Concentration 32 ug.mL-1;; ASSAY_TEST Inhibition of Bacterial Growth; detection method Absorption (OD600); MEDIA CAMHB; plate type 384well; NBS; CORNING #3640; time 18 hr
# Description: Antibacterial activity against Escherichia coli ATCC 25922 (CO-ADD:GN_001); MIC in CAMBH media using NBS plates, by OD(600)
Potency and affinity values are given separately.
Listing of recorded Inhibition by entry.
Numbers only here, please. The scale is %.

Below: 2 compounds and their reported Inhibition.
{"structure_as_smiles": "Cc1ccc(N(Cc2ccc(F)cc2)S(=O)(=O)c2ccc3nnc(C)n3c2)cc1", "test_target": "Escherichia coli", "test_readout": "Inhibition", "units_of_measure": "%", "measured_value": -5.57}
{"structure_as_smiles": "O=C(Cn1nc2ccc(SCc3ccc(Cl)cc3)nn2c1=O)NC1CCCCC1", "test_target": "Escherichia coli", "test_readout": "Inhibition", "units_of_measure": "%", "measured_value": -9.74}

Value of measured Inhibition for the entry `COc1ccc(NC(=O)Cn2nc3c4cc(-c5ccc(C)c(C)c5)nn4ccn3c2=O)c(OC)c1` : -14.02

Value of measured Inhibition for the entry `CCCc1nnc2c(=O)n(CC(=O)Nc3cccc(Br)c3)c3ccccc3n12` : -5.6

Value of measured Inhibition for the entry `CCOc1ccc(-n2ccn3c(SCC(=O)Nc4ccc(F)cc4F)nnc3c2=O)cc1` : 2.93

Value of measured Inhibition for the entry `O=S(=O)(c1cccn2cnnc12)N(Cc1cccc(Cl)c1)c1ccc(F)cc1` : -14.45

Value of measured Inhibition for the entry `CCc1ccccc1NC(=O)Cn1nc2n(C)c(=O)c3c(c(-c4ccccc4)cn3C)n2c1=O` : -11.71

====

# System: Escherichia coli
# settings: Concentration 32 ug.mL-1;; ASSAY_TEST Inhibition of Bacterial Growth; detection method Absorption (OD600); MEDIA CAMHB; plate type 384well; NBS; CORNING #3640; time 18 hr
Measured potencies and affinities stand elsewhere.
test_readout: Inhibition (%)
Numbers only here, please. The scale is %.

Below: 5 molecules and their reported Inhibition.
{"structure_as_smiles": "COc1cccc(-c2nc(CSc3nc4ccccc4n4c(C(C)C)nnc34)c(C)o2)c1OC", "Inhibition [%]": -1.56}
{"structure_as_smiles": "CCc1ccc(N(Cc2ccc(C)cc2)S(=O)(=O)c2cccn3c(C)nnc23)cc1", "Inhibition [%]": 0.51}
{"structure_as_smiles": "CCOc1ccccc1NC(=O)Cn1nc2c3cc(-c4ccc(OC)cc4)nn3ccn2c1=O", "Inhibition [%]": 5.35}
{"structure_as_smiles": "COc1cccc(Oc2nccn3c(=O)n(CC(=O)Nc4cccc(Br)c4)nc23)c1", "Inhibition [%]": -6.35}
{"structure_as_smiles": "Cc1ccc(CNC(=O)Cn2nc3c(Sc4cccc(F)c4)nccn3c2=O)cc1", "Inhibition [%]": -12.92}

Value of measured Inhibition for the entry `COC(=O)c1cccc(NC(=O)Cn2nc3c(Sc4ccc(C)cc4C)nccn3c2=O)c1` : -5.72

Value of measured Inhibition for the entry `COc1ccc(-c2cc3c4nnc(SCC(=O)Nc5ccc(C)c(F)c5)n4ccn3n2)cc1` : -1.39

====

# Test system: Escherichia coli
# settings: Concentration 32 ug.mL-1;; ASSAY_TEST Inhibition of Bacterial Growth; detection method Absorption (OD600); MEDIA CAMHB; plate type 384well; NBS; CORNING #3640; time 18 hr
Potency and affinity values are given separately.
test_readout: Inhibition (%)
Numbers only here, please. The scale is %.

Below: 6 compounds and their reported Inhibition.
{"structure_as_smiles": "Cc1cc2nn(CC(=O)Nc3cc(F)cc(F)c3)c(=O)n2c(Nc2ccccc2C)n1", "measured_value": -3.12}
{"structure_as_smiles": "COc1cc(NC(=O)Cn2nc3c(Sc4cccc(F)c4)nccn3c2=O)cc(OC)c1", "measured_value": -0.8}
{"structure_as_smiles": "Cc1cc2nn(CC(=O)Nc3ccc(F)c(F)c3)c(=O)n2c(Nc2ccc(F)c(C)c2)n1", "measured_value": -3.91}
{"structure_as_smiles": "CC(C)Cn1c(=O)c2sccc2n2c(=O)n(Cc3ccc(Br)cc3)nc12", "measured_value": -6.62}
{"structure_as_smiles": "CCc1ccccc1Sc1nccn2c(=O)n(CC(=O)Nc3ccc(C)cc3C)nc12", "measured_value": -10.9}
{"structure_as_smiles": "COc1ccccc1-n1ccn2c(SCC(=O)Nc3ccc(C)cc3C)nnc2c1=O", "measured_value": -4.75}

# Inhibition measured on Escherichia coli for item `Cc1ccc(-c2ccc3nn(CC(=O)Nc4c(C)cccc4C)c(=O)n3n2)cc1C` = -11.36

# Inhibition measured on Escherichia coli for item `Cc1nc(-c2ccccn2)cc2nn(CC(=O)Nc3ccccc3C(F)(F)F)c(=O)n12` = -9.66

# Inhibition measured on Escherichia coli for item `Cc1c(Cl)cccc1NC(=O)Cn1nc2c(N3CCOCC3)nc3ccccc3n2c1=O` = -0.44

# Inhibition measured on Escherichia coli for item `O=C(CSc1nc2ccccc2n2cnnc12)NCc1ccccc1Cl` = -4.49
